# TGT: T1, human isoleucine zipper-CD40L (IZ-hCD40L) (human, UniProt P29965 113-261)
# T1 sequence: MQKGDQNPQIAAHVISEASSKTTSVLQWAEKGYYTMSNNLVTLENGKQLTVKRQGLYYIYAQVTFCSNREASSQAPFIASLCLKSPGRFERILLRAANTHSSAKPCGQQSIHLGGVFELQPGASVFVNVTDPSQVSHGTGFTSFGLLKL
# METHOD SUMMARY: cell-based or functional assay
PROPERTY MEASURED: hIZCD40L-driven Human B Cell Proliferation EC50

Worked cases, hIZCD40L-driven Human B Cell Proliferation EC50 given:
INSERT INTO measurements (binder, measured_value) VALUES
  ('BMS2h-765 (other) VH: EVQLLESGGGLVQPGGSLRLSCAASGFTFSAYTMEWVRQAPGKGLEWVSSIGVTGYDTYYADSVKGRFTISRDNSKNTLYLQMNSLRAEDTAVYYCAKGGQGFDYWGQGTLVTVSS', '> 7 µM'),
  ('BMS2h-775 (other) VH: EVQLLESGGGLVQPGGSLRLSCAASGFTFPNYGMLWVRQAPGKGLEWVSSINSSGMETYYADSVKGRFTISRDNSKNTLYLQMNSLRAEDTAVYYCAKFFRLNDHNSVFGFDYWGQGTLVTVSS', '> 7 µM'),
  ('BMS2h-572-14 (other) VH: EVQLLESGGGLVQPGGSLRLSCAASGFTFNWQLMGWVRQAPGKGLEWVSGIEGPGDVTYYADSVKGRFTISRDNTKNTLYLQMNSLRAEDTAVYYCVKVGKESNSDYRGQGTLVTVSS', '0.134 µM');

Then there is this binder:
Consider BMS2h-754 (other) VH: EVQLLESGGGLVQPGGSLRLSCAASGFTFSRYDMVWVRQAPGKGLEWVSRINSMGLATYYADSVKGRFTISRDNSKNTLYLQMNSLRAEDTAVYYCAKDYSVAPHGYPLGFDYWGQGTLVTVSS . Its measured hIZCD40L-driven Human B Cell Proliferation EC50 is 6.6 µM

Data origin, for the record: patent US20160075790A1
